experiment-description: xn = mol fraction of the nth substance listed, in the solute-free solvent
test-parameters: 293.15 K; x2 = 0.8
readout-kind: solubility (g/100 g solution)
Please state the value as a number alone, without comment.

In the examples that follow, each entry is paired with its recorded solubility (g/100 g solution).
CC(N)C(=O)O (centres undefined) + O + CCO: 2.59
OCCN(CCO)c1nc(N2CCCCC2)c2nc(N(CCO)CCO)nc(N3CCCCC3)c2n1 + CO + O: 2.43
S=c1[nH]ncs1 + CCCO + O: 11.4

Turning to the following molecule.
Req: Please report the measured solubility (g/100 g solution) for CCCCCOC(=O)Nc1nc(=O)n(C2OC(C)C(O)C2O)cc1F (centres undefined) + CCOC(C)=O + CCCCCCC
Resp: 0.99

----------
Listed next: entries and their corresponding solubility (g/100 g solution).
experiment-description: xn = mol fraction of the nth substance listed, in the solute-free solvent
test-parameters: 308.15 K; x2 = 0.3

In the examples that follow, each entry is paired with its recorded solubility (g/100 g solution).
Cc1ncc(C[n+]2csc(CCO)c2C)c(N)n1.O=[N+]([O-])[O-] + O + CC(C)O: 0.115
CCCCCOC(=O)Nc1nc(=O)n(C2OC(C)C(O)C2O)cc1F (configuration not stated) + CCOC(C)=O + CCCCCCC: 0.106
Cc1ncc(C[n+]2csc(CCO)c2C)c(N)n1.O=[N+]([O-])[O-] + O + CC(C)=O: 0.161
OCCN(CCO)c1nc(N2CCCCC2)c2nc(N(CCO)CCO)nc(N3CCCCC3)c2n1 + CO + O: 0.178
S=c1[nH]ncs1 + CCCO + O: 15.4

Req: Please report the measured solubility (g/100 g solution) for S=c1[nH]ncs1 + CC(C)=O + O
Resp: 24.9

Req: Please report the measured solubility (g/100 g solution) for CCCCCOC(=O)Nc1nc(=O)n(C2OC(C)C(O)C2O)cc1F (configuration not stated) + CCOC(C)=O + CCCCCC
Resp: 0.165

Req: Please report the measured solubility (g/100 g solution) for Cc1ncc(C[n+]2csc(CCO)c2C)c(N)n1.O=[N+]([O-])[O-] + O + CO
Resp: 1.46

Req: Please report the measured solubility (g/100 g solution) for OCCN(CCO)c1nc(N2CCCCC2)c2nc(N(CCO)CCO)nc(N3CCCCC3)c2n1 + CC(C)O + O
Resp: 11.6

Req: Please report the measured solubility (g/100 g solution) for OCCN(CCO)c1nc(N2CCCCC2)c2nc(N(CCO)CCO)nc(N3CCCCC3)c2n1 + CCO + O
Resp: 3.79

Req: Please report the measured solubility (g/100 g solution) for S=c1[nH]ncs1 + CO + O
Resp: 7.12

Req: Please report the measured solubility (g/100 g solution) for S=c1[nH]ncs1 + CCO + O
Resp: 12.9

----------
Listed next: entries and their corresponding solubility (g/100 g solution).
experiment-description: xn = mol fraction of the nth substance listed, in the solute-free solvent
test-parameters: 318.15 K; x2 = 0.3
Please state the value as a number alone, without comment.

OCCN(CCO)c1nc(N2CCCCC2)c2nc(N(CCO)CCO)nc(N3CCCCC3)c2n1 + CO + O: 0.39
CCCCCOC(=O)Nc1nc(=O)n(C2OC(C)C(O)C2O)cc1F (centres undefined) + CCOC(C)=O + CCCCCC: 0.233

Req: Please report the measured solubility (g/100 g solution) for OCCN(CCO)c1nc(N2CCCCC2)c2nc(N(CCO)CCO)nc(N3CCCCC3)c2n1 + CCO + O
Resp: 8.14

Req: Please report the measured solubility (g/100 g solution) for CCCCCOC(=O)Nc1nc(=O)n(C2OC(C)C(O)C2O)cc1F (centres undefined) + CCOC(C)=O + CCCCCCC
Resp: 0.174

----------
experiment-description: xn = mol fraction of the nth substance listed, in the solute-free solvent
test-parameters: 313.15 K; x2 = 0.1436
Listed next: entries and their corresponding solubility (g/100 g solution).
Please state the value as a number alone, without comment.

In the examples that follow, each entry is paired with its recorded solubility (g/100 g solution).
COc1cc2c(cc1OC)-c1cc3ccc(OC)c(OC)c3c[n+]1CC2.[Cl-] + CCO + O: 4.52
Cc1[nH]c(=O)c(C#N)cc1-c1ccncc1 + CCO + O: 0.00333
Nc1cccc(S(=O)(=O)c2cccc(N)c2)c1 + CCO + O: 0.941

Req: Please report the measured solubility (g/100 g solution) for CC(C)OC(=O)C(C)NP(=O)(OCC1OC(n2ccc(=O)[nH]c2=O)C(C)(F)C1O)Oc1ccccc1 (centres undefined) + CCO + O
Resp: 17.7

----------
Listed next: entries and their corresponding solubility (g/100 g solution).
experiment-description: xn = mol fraction of the nth substance listed, in the solute-free solvent
test-parameters: 308.15 K; x2 = 0.1139

Cc1[nH]c(=O)c(C#N)cc1-c1ccncc1 + CC(C)O + O: 0.00635
c1ccc2[nH]c(-c3cscn3)nc2c1 + CC(C)O + O: 0.0539
CN1CCN(C2=Nc3cc(Cl)ccc3Nc3ccccc32)CC1 + CC(C)O + O: 0.207
Nc1cccc(S(=O)(=O)c2cccc(N)c2)c1 + CC(C)O + O: 0.618
c1ccc2[nH]c(-c3cscn3)nc2c1 + CCCO + O: 0.0828

Turning to the following molecule.
Req: Please report the measured solubility (g/100 g solution) for Nc1nccnc1Cl + CC(C)O + O
Resp: 0.439

----------
experiment-description: xn = mol fraction of the nth substance listed, in the solute-free solvent
test-parameters: 313.15 K; x2 = 0.6101
readout-kind: solubility (g/100 g solution)
Please state the value as a number alone, without comment.

In the examples that follow, each entry is paired with its recorded solubility (g/100 g solution).
Nc1cccc(S(=O)(=O)c2cccc(N)c2)c1 + CCO + O: 2.57
Cc1[nH]c(=O)c(C#N)cc1-c1ccncc1 + CCO + O: 0.0108
COc1cc2c(cc1OC)-c1cc3ccc(OC)c(OC)c3c[n+]1CC2.[Cl-] + CCO + O: 6.14

Req: Please report the measured solubility (g/100 g solution) for CC(C)OC(=O)C(C)NP(=O)(OCC1OC(n2ccc(=O)[nH]c2=O)C(C)(F)C1O)Oc1ccccc1 (centres undefined) + CCO + O
Resp: 41.6

----------
Listed next: entries and their corresponding solubility (g/100 g solution).
experiment-description: xn = mol fraction of the nth substance listed, in the solute-free solvent
test-parameters: 293.15 K; x2 = 0.04165

In the examples that follow, each entry is paired with its recorded solubility (g/100 g solution).
Nc1cccc(S(=O)(=O)c2cccc(N)c2)c1 + CCO + O: 0.128
CC(C)OC(=O)C(C)NP(=O)(OCC1OC(n2ccc(=O)[nH]c2=O)C(C)(F)C1O)Oc1ccccc1 (centres undefined) + CCO + O: 0.882
COc1cc2c(cc1OC)-c1cc3ccc(OC)c(OC)c3c[n+]1CC2.[Cl-] + CCO + O: 1.87

Turning to the following compound.
Req: Please report the measured solubility (g/100 g solution) for Cc1[nH]c(=O)c(C#N)cc1-c1ccncc1 + CCO + O
Resp: 0.00114

----------
experiment-description: xn = mol fraction of the nth substance listed, in the solute-free solvent
test-parameters: 293.15 K; x2 = 0.1139
Listed next: entries and their corresponding solubility (g/100 g solution).
Please state the value as a number alone, without comment.

CN1CCN(C2=Nc3cc(Cl)ccc3Nc3ccccc32)CC1 + CC(C)O + O: 0.117

Req: Please report the measured solubility (g/100 g solution) for c1ccc2[nH]c(-c3cscn3)nc2c1 + CCCO + O
Resp: 0.0487

Req: Please report the measured solubility (g/100 g solution) for Nc1nccnc1Cl + CC(C)O + O
Resp: 0.266

Req: Please report the measured solubility (g/100 g solution) for Cc1[nH]c(=O)c(C#N)cc1-c1ccncc1 + CC(C)O + O
Resp: 0.00429

Req: Please report the measured solubility (g/100 g solution) for c1ccc2[nH]c(-c3cscn3)nc2c1 + CC(C)O + O
Resp: 0.0303

Req: Please report the measured solubility (g/100 g solution) for Nc1cccc(S(=O)(=O)c2cccc(N)c2)c1 + CC(C)O + O
Resp: 0.286

----------
experiment-description: xn = mol fraction of the nth substance listed, in the solute-free solvent
test-parameters: 318.15 K; x2 = 0.3
Use condition met when the recorded solubility (g/100 g solution) is no lower than 20; use condition not met when it is lower.

S=c1[nH]ncs1 + CCO + O: condition not met
S=c1[nH]ncs1 + CO + O: condition not met
S=c1[nH]ncs1 + CC(C)=O + O: condition met

Now for another entry.
Req: API: above_or_equal(metric=solubility (g/100 g solution), cutoff=20) for item S=c1[nH]ncs1 + CCCO + O
Resp: condition met
